# Lookup of reported pIC50 keyed by entry
Target: NV 3CLpro (Norovirus)
Sequence (Q83883 1101-1281): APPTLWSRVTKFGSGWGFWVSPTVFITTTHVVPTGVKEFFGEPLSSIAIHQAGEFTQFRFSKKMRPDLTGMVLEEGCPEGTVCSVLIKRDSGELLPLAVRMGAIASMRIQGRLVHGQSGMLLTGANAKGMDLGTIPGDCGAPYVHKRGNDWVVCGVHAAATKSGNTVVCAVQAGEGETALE
Test: biochemical
Format: biochemical
pIC50: −log10 of the molar value.

compoundStructure | experimentalTarget | pIC50
O=C[C@H](C[C@@H]1CCNC1=O)NC(=O)[C@H](CC1CCCCC1)NC(=O)OC1(c2cccc(Cl)c2)CC1 | NV 3CLpro (Norovirus) | 6.55
CC(C)C[C@H](NC(=O)OC1(c2cccc(Cl)c2)CC1)C(=O)N[C@H](C=O)C[C@@H]1CCNC1=O | NV 3CLpro (Norovirus) | 6.55
O=C[C@H](C[C@@H]1CCNC1=O)NC(=O)[C@H](CC1CCCCC1)NC(=O)OC/C=C/c1cccc(Cl)c1 | NV 3CLpro (Norovirus) | 6.85
CC(C)C[C@H](NC(=O)OC/C=C/c1cccc(Cl)c1)C(=O)N[C@H](C=O)C[C@@H]1CCNC1=O | NV 3CLpro (Norovirus) | 6.82
